assayed.target: Amyloid-beta precursor protein (Homo sapiens) (UniProt P05067)
Sequence (P05067 whole entry): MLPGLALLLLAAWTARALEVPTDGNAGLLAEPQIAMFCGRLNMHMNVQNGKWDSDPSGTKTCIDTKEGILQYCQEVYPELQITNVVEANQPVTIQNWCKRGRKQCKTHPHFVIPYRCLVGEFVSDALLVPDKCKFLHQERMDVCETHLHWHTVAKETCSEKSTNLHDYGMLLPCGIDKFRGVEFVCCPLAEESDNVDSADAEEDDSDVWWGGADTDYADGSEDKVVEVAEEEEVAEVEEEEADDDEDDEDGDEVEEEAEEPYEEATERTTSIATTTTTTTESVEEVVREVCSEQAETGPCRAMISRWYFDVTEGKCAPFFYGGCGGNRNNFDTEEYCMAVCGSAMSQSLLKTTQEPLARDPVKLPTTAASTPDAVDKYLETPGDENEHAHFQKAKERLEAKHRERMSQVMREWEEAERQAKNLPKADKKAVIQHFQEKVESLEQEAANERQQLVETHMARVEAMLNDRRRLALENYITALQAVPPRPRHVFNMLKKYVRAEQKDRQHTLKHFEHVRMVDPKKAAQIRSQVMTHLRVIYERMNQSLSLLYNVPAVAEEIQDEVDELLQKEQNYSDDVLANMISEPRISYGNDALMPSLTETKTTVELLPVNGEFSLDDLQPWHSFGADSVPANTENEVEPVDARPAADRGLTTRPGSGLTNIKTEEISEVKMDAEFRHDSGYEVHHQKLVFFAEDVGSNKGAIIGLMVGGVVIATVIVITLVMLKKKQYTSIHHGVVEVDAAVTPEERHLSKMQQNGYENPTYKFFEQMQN
measurement.protocol: Inhibition of amyloid beta 40 (unknown origin) aggregation assessed as decrease in […] conformation of protein secondary structure at 50 uM incubated for 24 hrs by Circular dichroism spectroscopy analysis
Activity calls are given as the source filed them. The rule behind the calls is not given here.
measure: inhibition

Solved entries:
{"compound": "CCCC[C@@H]1NC(=O)[C@@H](CC(C)C)NC(=O)N(CCCCN)NC(=O)[C@@H](CO)NC(=O)[C@H](Cc2c[nH]cn2)NC(=O)[C@@H](Cc2c[nH]c3ccccc23)NC1=O (racemic)", "inhibition": "Active"}
{"compound": "CCCC[C@@H]1NC(=O)N(CC(C)C)NC(=O)[C@H](CCCCN)NC(=O)[C@@H](CO)NC(=O)[C@H](Cc2c[nH]cn2)NC(=O)[C@@H](Cc2c[nH]c3ccccc23)NC1=O (racemic)", "inhibition": "Active"}
{"compound": "CCCC[C@@H]1NC(=O)[C@@H](CC(C)C)NC(=O)[C@H](CCCCN)NC(=O)[C@@H](CO)NC(=O)[C@H](Cc2c[nH]cn2)NC(=O)N(Cc2cc3ccccc3[nH]2)NC1=O", "inhibition": "inactive"}
{"compound": "CCCCN1NC(=O)[C@@H](CC(C)C)NC(=O)[C@H](CCCCN)NC(=O)[C@@H](CO)NC(=O)[C@H](Cc2c[nH]cn2)NC(=O)[C@@H](Cc2c[nH]c3ccccc23)NC1=O (racemic)", "inhibition": "inactive"}

Batch lookup, inhibition per entry.
1. CCCC[C@@H]1NC(=O)[C@@H](CC(C)C)NC(=O)[C@H](CCCCN)NC(=O)N(CCO)NC(=O)[C@H](Cc2c[nH]cn2)NC(=O)[C@@H](Cc2c[nH]c3ccccc23)NC1=O (racemic)
2. CCCC[C@@H]1NC(=O)[C@@H](CC(C)C)NC(=O)[C@H](CCCCN)NC(=O)[C@@H](CO)NC(=O)N(Cc2c[nH]nn2)NC(=O)[C@@H](Cc2c[nH]c3ccccc23)NC1=O (racemic)

**A:**
60%
60%
